Target sequence: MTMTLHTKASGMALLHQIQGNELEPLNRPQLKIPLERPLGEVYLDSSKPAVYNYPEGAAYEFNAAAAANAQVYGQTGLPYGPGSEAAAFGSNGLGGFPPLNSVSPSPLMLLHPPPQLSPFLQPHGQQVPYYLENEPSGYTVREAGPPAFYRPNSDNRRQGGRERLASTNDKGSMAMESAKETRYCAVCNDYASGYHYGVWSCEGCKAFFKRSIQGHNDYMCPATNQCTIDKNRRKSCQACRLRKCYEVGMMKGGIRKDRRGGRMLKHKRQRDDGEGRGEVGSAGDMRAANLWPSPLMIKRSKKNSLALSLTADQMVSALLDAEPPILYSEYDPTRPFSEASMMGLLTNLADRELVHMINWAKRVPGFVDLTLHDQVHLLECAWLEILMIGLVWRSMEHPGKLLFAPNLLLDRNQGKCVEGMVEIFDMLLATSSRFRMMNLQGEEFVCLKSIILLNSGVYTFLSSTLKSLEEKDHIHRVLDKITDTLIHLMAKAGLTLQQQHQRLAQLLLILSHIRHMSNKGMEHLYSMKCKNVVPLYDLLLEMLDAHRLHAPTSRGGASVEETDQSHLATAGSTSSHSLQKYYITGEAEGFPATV
METRIC_NAME: IC50 (nM)

I = CC(C)(C)OC(=O)N1CCN(c2ccc(C#CCCCC[C@@H]3Cc4cc(O)ccc4[C@H]4CC[C@]5(C)[C@@H](O)CC[C@H]5[C@H]34)cc2)CC1
II = CCOC(=O)CC(=O)c1ccc(C#CCCCC[C@@H]2Cc3cc(O)ccc3[C@H]3CC[C@]4(C)[C@@H](O)CC[C@H]4[C@H]23)cc1
III = C[C@]12CC[C@@H]3c4ccc(O)cc4C[C@@H](CCCCC#Cc4ccc5ccccc5c4)[C@H]3[C@@H]1CC[C@@H]2O
Exercise: List by increasing IC50. Answer format: the labels, ordered as requested.
Key: II, III, I
